- Target system: T1, human MSLN-R3 protein (human, UniProt Q13421 487-598)
- T1 construct: also called hMSLN-R3
- T1 sequence (Q13421 495-606, form in doubt): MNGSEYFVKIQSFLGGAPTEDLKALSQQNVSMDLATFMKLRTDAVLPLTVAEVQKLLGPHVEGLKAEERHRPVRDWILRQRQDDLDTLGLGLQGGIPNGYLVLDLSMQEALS
- Experimental protocol: ELISA on coated antigen, antibody 0.1 nM
Reported values of OD450 for individual entries
Measured quantity: OD450

| Binder | Result |
| --- | --- |
| F7.44.20 (scFv, not shown: small tags and cut ends, also called S009-F7.44.20 (parental variable regions, in the humanized-antibody ELISA)) scFv: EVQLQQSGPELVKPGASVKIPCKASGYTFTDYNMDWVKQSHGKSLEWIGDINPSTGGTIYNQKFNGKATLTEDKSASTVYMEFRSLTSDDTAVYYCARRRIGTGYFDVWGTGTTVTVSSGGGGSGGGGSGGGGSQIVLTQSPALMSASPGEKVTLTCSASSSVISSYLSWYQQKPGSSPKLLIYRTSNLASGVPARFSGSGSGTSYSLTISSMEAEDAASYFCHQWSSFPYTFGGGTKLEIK | 0.07 OD450 |
| F7.44.20-H9 (scFv, not shown: small tags and cut ends, also called S009-F7.44.20 humanized antibody VH2 + VL1) scFv: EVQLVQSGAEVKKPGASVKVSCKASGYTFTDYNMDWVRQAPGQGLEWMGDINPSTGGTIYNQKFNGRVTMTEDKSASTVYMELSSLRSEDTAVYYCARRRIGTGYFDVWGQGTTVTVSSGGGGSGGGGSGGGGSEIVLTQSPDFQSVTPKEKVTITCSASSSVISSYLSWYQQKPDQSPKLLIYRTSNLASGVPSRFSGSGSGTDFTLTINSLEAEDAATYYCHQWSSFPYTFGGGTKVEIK | 0.11 OD450 |
| Tab110 (scFv, not shown: small tags and cut ends, also called YP218 VH-(G4S)3-VL-his antibody; positive control) scFv: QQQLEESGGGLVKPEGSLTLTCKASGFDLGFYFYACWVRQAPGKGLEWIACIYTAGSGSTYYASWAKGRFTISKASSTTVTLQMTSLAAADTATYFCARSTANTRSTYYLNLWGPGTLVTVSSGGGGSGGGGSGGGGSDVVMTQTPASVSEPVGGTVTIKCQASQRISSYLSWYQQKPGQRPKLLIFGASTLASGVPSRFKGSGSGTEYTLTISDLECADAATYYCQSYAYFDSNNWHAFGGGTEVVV | 0.04 OD450 |
| F7.44.20-H8 (scFv, not shown: small tags and cut ends, also called S009-F7.44.20 humanized antibody VH1a + VL4) scFv: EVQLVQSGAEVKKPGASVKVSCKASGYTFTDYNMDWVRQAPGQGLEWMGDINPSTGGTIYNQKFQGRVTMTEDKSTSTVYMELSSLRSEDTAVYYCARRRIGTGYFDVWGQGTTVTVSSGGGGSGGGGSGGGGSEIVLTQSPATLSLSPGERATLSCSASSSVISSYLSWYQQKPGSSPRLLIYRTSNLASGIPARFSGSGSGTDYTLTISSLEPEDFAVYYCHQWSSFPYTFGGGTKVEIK | 0.09 OD450 |
| F7.44.20-H6 (scFv, not shown: small tags and cut ends, also called S009-F7.44.20 humanized antibody VH1a + VL2) scFv: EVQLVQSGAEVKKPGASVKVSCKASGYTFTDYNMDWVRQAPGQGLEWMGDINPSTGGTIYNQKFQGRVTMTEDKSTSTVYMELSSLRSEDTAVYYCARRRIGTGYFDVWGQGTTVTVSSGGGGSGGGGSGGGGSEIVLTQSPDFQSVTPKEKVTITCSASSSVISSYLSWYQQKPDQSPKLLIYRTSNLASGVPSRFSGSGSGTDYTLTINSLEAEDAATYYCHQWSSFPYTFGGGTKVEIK | 0.21 OD450 |
